System: EPLC-272H
Assay: relative viability (nuclei count vs DMSO), 5 days (fraction); higher = more cells survive
Settings: first compound 0.8 µM
Task for the reader: assign each of the following compounds its reported relative viability.

Example results:
COc1nc(C)cnc1NS(=O)(=O)c1cccnc1-c1ccc(-c2nnco2)cc1 [Zibotentan] + CC1(C)CCC(c2ccc(Cl)cc2)=C(CN2CCN(c3ccc(C(=O)NS(=O)(=O)c4ccc(N[C@H](CCN5CCOCC5)CSc5ccccc5)c(S(=O)(=O)C(F)(F)F)c4)cc3)CC2)C1 [Navitoclax] (partner 0.5 µM) :: 1.16
O=c1cc(-c2cccc3c2Sc2ccccc2S3)oc(N2CCOCC2)c1 + CS(=O)(=O)CCNCc1ccc(-c2ccc3ncnc(Nc4ccc(OCc5cccc(F)c5)c(Cl)c4)c3c2)o1 [Lapatinib] (partner 2 µM) :: 0.867
O=c1cc(-c2cccc3c2Sc2ccccc2S3)oc(N2CCOCC2)c1 + O=C(CCCCCCC(=O)Nc1ccccc1)NO [Vorinostat] (partner 1 µM) :: 0.291
O=c1cc(-c2cccc3c2Sc2ccccc2S3)oc(N2CCOCC2)c1 + C[C@]1(O)C[C@@H](c2nc(-c3ccc4ccc(-c5ccccc5)nc4c3)c3c(N)nccn32)C1 [Linsitinib] (partner 1 µM) :: 1.3

For the next question, use this compound.
Reported relative viability ( O=c1cc(-c2cccc3c2Sc2ccccc2S3)oc(N2CCOCC2)c1 + N=C(N)NC(=N)NCCc1ccccc1 [Phenformin] (partner 250 µM) ) = 0.318
